tested on: Wolbachia pipientis; assay: Anti-Wolbachia Cell-Based Screen; format: functional; parameters: scale not given: in the data most compounds retested in dose-response had high values; conditions: 5 µM
Screen size: about 48,000 compounds; about 13,000 (27%) showed an effect of 50% or more. The list shows a part of the results.
The label is Condition met for Percent Effect below 90% and Condition not met for Percent Effect equal to or exceeding 90%.

Molecule	Label Value
COc1cc(N2C[C@H]3CN(Cc4ccccn4)C[C@H]3C2)ncn1.O=C(O)C(F)(F)F	Condition not met
COc1cc(N2C[C@H]3CCN(CCN4CCCC4)C[C@H]3C2)ncn1.O=C(O)C(F)(F)F.O=C(O)C(F)(F)F	Condition met
CCc1cc(N2CCC(NC3CN4CCC3CC4)CC2)nc(N(C)C)n1 (stereo not drawn)	Condition met
COc1ncccc1CN1C[C@@H]2OCCN(CCN(C)C)[C@@H]2C1.O=C(O)C(F)(F)F.O=C(O)C(F)(F)F.O=C(O)C(F)(F)F	Condition met
COCCN1CC[C@@H]2CN(Cc3cccnc3OC)C[C@@H]2C1.O=C(O)C(F)(F)F.O=C(O)C(F)(F)F	Condition not met
COc1ncccc1CN1C[C@@H]2CN(c3ncccn3)C[C@@H]2C1	Condition not met
COC[C@]12COC[C@H]1CN(Cc1cccnc1OC)C2	Condition met
